Every entry's value here was drawn from patent US20140187548A1.

biological target: human kinase Mps-1 (Homo sapiens); construct: N-terminally GST-tagged human full length recombinant Mps-1 kinase; GST (N); assay: Mps-1 kinase assay (TR-FRET); conditions: N-terminally GST-tagged human full length recombinant Mps-1; 10 μM ATP; 1 μM peptide substrate; 15 min pre-incubation; 60 min at 22° C.
pIC50: −log10 of the molar value.
Property Label: pIC50

Please review the entries below; each comes with its answer.
Cc1cc(-c2cnc3c(NCCC(F)(F)F)nc(-c4ccc(CO)cc4)cn23)ccc1C(=O)NC1CC1 | 8.92
Cc1cc(-c2cnc3c(NCCC(F)(F)F)nc(-c4cccc(CO)c4)cn23)ccc1C(=O)NC1CC1 | 7.92
CN1CCCC1CCNc1nc(-c2ccccc2)cn2c(-c3ccc(C(=O)NC4CC4)cc3)cnc12 (stereo not shown) | 7.78
CC(C)(O)CNc1nc(-c2cc(F)c(F)c(F)c2)cn2c(-c3ccc(C(=O)NC4CC4)cc3)cnc12 | 7.50
CN(C)c1ccc(-c2cn3c(-c4ccc(C(=O)NC5CC5)c(Cl)c4)cnc3c(NCC(C)(C)O)n2)cc1 | 7.51
CCN(CC)CCCNc1nc(-c2ccccc2)cn2c(-c3ccc(C(=O)NC4CC4)cc3)cnc12 | 7.83

I: CC(C)CNc1nc(-c2ccc(F)cc2)cn2c(-c3ccc(C(=O)NC4CC4)c(Cl)c3)cnc12
II: CN(C)CCNc1nc(-c2ccccc2)cn2c(-c3ccc(C(=O)NC4CC4)cc3)cnc12
III: Cn1nccc1CNc1nc(-c2ccccc2CO)cn2c(-c3ccc(C(=O)NC4CC4)c(F)c3)cnc12
IV: N#CCCNc1nc(-c2ccccc2)cn2c(-c3ccc(C(=O)NC4CC4)cc3)cnc12
Task: Arrange the 4 entries by pIC50 so the values rise. Reply: labels, ordered per the request.
Result: II, I, III, IV
(II: 7.45, I: 7.74, III: 7.95, IV: 9.00)

###

Target: human kinase Mps-1 (Homo sapiens, UniProt P33981)
Construct: N-terminally GST-tagged human full length recombinant Mps-1 kinase; GST (N)
Sequence (P33981 1-857): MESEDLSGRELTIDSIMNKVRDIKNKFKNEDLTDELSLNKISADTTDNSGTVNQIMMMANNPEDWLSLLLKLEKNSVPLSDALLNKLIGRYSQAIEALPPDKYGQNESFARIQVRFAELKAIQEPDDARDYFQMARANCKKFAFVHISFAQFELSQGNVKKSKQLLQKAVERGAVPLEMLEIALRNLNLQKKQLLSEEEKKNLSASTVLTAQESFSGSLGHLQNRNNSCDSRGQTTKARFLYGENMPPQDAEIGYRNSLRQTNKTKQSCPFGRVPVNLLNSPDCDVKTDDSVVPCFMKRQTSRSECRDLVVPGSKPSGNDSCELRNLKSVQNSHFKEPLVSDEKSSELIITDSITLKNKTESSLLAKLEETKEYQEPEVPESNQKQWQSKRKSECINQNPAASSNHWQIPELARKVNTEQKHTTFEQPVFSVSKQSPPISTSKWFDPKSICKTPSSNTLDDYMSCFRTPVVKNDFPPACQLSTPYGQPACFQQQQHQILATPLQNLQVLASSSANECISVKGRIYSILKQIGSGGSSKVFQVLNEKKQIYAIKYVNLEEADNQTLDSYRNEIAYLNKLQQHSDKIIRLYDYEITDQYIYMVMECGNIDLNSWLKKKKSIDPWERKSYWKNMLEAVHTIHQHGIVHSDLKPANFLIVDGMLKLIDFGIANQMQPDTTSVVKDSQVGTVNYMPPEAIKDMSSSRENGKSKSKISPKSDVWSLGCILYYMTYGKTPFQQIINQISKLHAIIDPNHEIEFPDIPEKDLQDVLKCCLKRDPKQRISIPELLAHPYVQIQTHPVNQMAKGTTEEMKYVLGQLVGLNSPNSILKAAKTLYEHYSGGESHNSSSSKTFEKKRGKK
Experiment: Mps-1 kinase assay (TR-FRET)
Settings: N-terminally GST-tagged human full length recombinant Mps-1; 10 μM ATP; 1 μM peptide substrate; 15 min pre-incubation; 60 min at 22° C.
pIC50: −log10 of the molar value.
Property Label: pIC50

Please review the entries below; each comes with its answer.
CC(C)CNc1nc(-c2ccccc2CO)cn2c(-c3ccc(C(=O)NC4CC4)c(Cl)c3)cnc12 [Example 1-95] | 8.28
O=C(NC1CC1)c1ccc(-c2cnc3c(NCCCc4ccccc4)nc(-c4ccccc4)cn23)cc1 [Example 2-31] | 7.46
O=C(NC1CC1)c1ccc(-c2cnc3c(NCC4CCC(C(F)(F)F)CC4)nc(-c4ccccc4)cn23)cc1 (mixture of isomers) [Example 2-86] | 7.91
CC(C)CNc1nc(-c2ccc3ccccc3c2)cn2c(-c3ccc(C(=O)NC4CC4)cc3)cnc12 [Example 1-42] | 7.31
N#Cc1cccc(CNc2nc(-c3ccccc3)cn3c(-c4ccc(C(=O)NC5CC5)cc4)cnc23)c1 [Example 2-61] | 7.92
CC(C)(O)CNc1nc(-c2ccccc2CO)cn2c(-c3ccc(C(=O)NC4CC4)c(Cl)c3)cnc12 [Example 1-100] | 7.06

P: Cc1cc(-c2cnc3c(NCCC(C)CO)nc(-c4ccc(F)cc4)cn23)ccc1C(=O)NC1CC1 (centres unmarked) [Example 10-5]
Q: CC(C)CNc1nc(-c2ccc(N3CCOCC3)cc2)cn2c(-c3ccc(C(=O)NC4CC4)cc3)cnc12 [Example 1-91]
Task: Quick check, higher pIC50 between P and Q ? Give the label of your selection.
Result: Q

P: Cc1cccc(-c2cn3c(-c4ccc(C(=O)NC5CC5)cc4)cnc3c(NCC(C)C)n2)c1 [Example 1-8]
Q: CC(C)CNc1nc(-c2ccc(C(F)(F)F)cc2)cn2c(-c3ccc(C(=O)NC4CC4)cc3)cnc12 [Example 1-36]
Task: Quick check, higher pIC50 between P and Q ? Give the label of your selection.
Result: P
(P: 8.31, Q: 7.52)

A: Cn1nccc1CNc1nc(-c2ccccc2)cn2c(-c3ccc(C(=O)NC4CC4)cc3)cnc12 [Example 2-54]
B: CC(C)CNc1nc(-c2cccc(C(=O)NCc3ccccc3)c2)cn2c(-c3ccc(C(=O)NC4CC4)cc3)cnc12 [Example 1-55]
Task: Quick check, higher pIC50 between A and B ? Give the label of your selection.
Result: A
(A: 8.82, B: 8.34)

I: CC(C)CNc1nc(C(C)C)cn2c(-c3ccc(C(=O)NC4CC4)cc3)cnc12 [Example 11-2]
II: O=C(NC1CC1)c1ccc(-c2cnc3c(NCC(F)F)nc(-c4ccccc4)cn23)cc1 [Example 2-52]
Task: // task: argmin of pIC50 over [ I , II ] Give the label of your selection.
Result: I
(I: 8.15, II: 8.51)
